TARGET_OF_ASSAY: Fuc(a1-2)[GalNAc(a1-3)]Gal(b1-4)GlcNAc(b1-3)Gal(b1-4)GlcNAc(b1-3)Gal(b1-4)GlcNAc
TEST_SUMMARY: glycan array binding signal (z-score within array); higher = stronger binding
CONDITION_CONTEXT: glycan notation: IUPAC condensed, linker removed
About 410 targets per protein were measured; listed, in parts, are those with the strongest signals and a random draw of the rest.
EXPERIMENTAL_ENDPOINT: glycan array binding signal (z-score)
The answer should be written as a number, with no unit following it.

Inquiry: Report glycan array binding signal (z-score), nothing else, for this binder: SSL (Salmo salar) (protein) TGAKGAEEGVVPAETRNQCPTGWFQFGSRCFMFVETARSWPLAERHCVSLGANLASVHSSADDQFLQAIAGCKTGAFSTTWIGGFDAVQDRLWFWSDGSEFDYQNWAKGEPNNSGGREPCIVINWGDEYRWNDIKCGNSFPSVCSKRICEIQKN
Reply text: -0.178

Inquiry: Report glycan array binding signal (z-score), nothing else, for this binder: pTFF2 (Sus scrofa), P01359 (protein) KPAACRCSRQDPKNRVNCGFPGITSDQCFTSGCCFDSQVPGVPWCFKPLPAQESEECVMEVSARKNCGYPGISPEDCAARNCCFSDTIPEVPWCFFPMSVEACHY
Reply text: -0.048

Inquiry: Report glycan array binding signal (z-score), nothing else, for this binder: SP15308A-bot-339-19-339 (Bacteroides ovatus) (protein) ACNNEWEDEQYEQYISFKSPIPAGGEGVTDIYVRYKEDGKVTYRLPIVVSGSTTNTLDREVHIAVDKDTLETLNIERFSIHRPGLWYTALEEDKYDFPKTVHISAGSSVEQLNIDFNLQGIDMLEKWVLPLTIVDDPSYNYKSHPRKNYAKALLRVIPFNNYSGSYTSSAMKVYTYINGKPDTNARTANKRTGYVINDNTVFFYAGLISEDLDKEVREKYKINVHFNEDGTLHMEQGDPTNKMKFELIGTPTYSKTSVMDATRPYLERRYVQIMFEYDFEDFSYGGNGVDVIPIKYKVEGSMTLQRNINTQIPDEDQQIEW
Reply text: 0.178
